Tested on: HK-2
assay.explanation: Genotoxicity in human HK2 cells assessed as induction of DNA strand breakage at 20 uM after 6 hrs by DAPI staining based alkaline comet assay
Assay type: toxicity, cell-based
study.conditions: hk-2, 6 h
attribute.measured: Activity

Would you please look over these solved cases?
| compound | test.system | attribute.measured | result |
| --- | --- | --- | --- |
| O=C(/C=C/c1cccc2ccccc12)c1ccccc1O | HK-2 | Activity | Non-Toxic |
| O=C(/C=C/c1ccc2ccccc2c1)c1c(O)ccc2ccccc12 | HK-2 | Activity | Non-Toxic |
| O=C(/C=C/c1cncc(Br)c1)c1ccc2ccccc2c1O | HK-2 | Activity | Non-Toxic |
| O=C(/C=C/c1ccc(Br)cc1)c1ccccc1O | HK-2 | Activity | Non-Toxic |
| O=C(/C=C/c1ccccc1)c1ccc2ccccc2c1 | HK-2 | Activity | Non-Toxic |
| O=C(CC(O)c1ccccc1)c1ccc2ccccc2c1 (centres undefined) | HK-2 | Activity | Non-Toxic |
| O=C(/C=C/c1ccccn1)c1ccccc1O | HK-2 | Activity | Non-Toxic |
| O=C(/C=C/c1ccc2ccccc2c1)c1ccccc1 | HK-2 | Activity | Non-Toxic |
| O=C(/C=C/c1cccnc1Br)c1ccccc1O | HK-2 | Activity | Non-Toxic |
| O=C(/C=C/c1ccc2ccccc2c1)c1ccccc1O | HK-2 | Activity | Non-Toxic |

Q. // fetch HK-2 Activity for `O=C(/C=C/c1cccc(Br)n1)c1ccccc1O`
A. Non-Toxic

Q. Param readout= Activity; system= HK-2; entry= `O=C(/C=C/c1cccc2ccccc12)c1c(O)ccc2ccccc12` ; returns value.
A. Non-Toxic

Q. Lookup: Activity / HK-2 / `O=C(/C=C/c1cccc2ccccc12)c1ccccc1`
A. Non-Toxic

Q. Missing value: Activity, HK-2, entry `O=C(/C=C/c1ccccc1)c1cccc2ccccc12` . Fill in?
A. Non-Toxic

* * *

test.system: Nuclear factor erythroid 2-related factor 2 (Mus musculus)
assay.explanation: Ratio of CD for activation of Nrf2 in mutant mouse BpRc1 cells cytosolic fraction to CD for activation of Nrf2 in wild type mouse Hepa1c1c7 cells cytosolic fraction
Assay type: cell-based
For each record, write down the corresponding Ratio.
Output spec: single numeric token, no unit.

Q. Entry under review: `O=C(/C=C/c1cccc2ccccc12)c1ccccc1O` . Reported Ratio?
A. 0.91

Q. // returns reported Ratio for input `CC(C)(C)c1cc(O)ccc1O`
A. 6

Q. Param item = `O=c1cc(-c2ccc(Br)cc2)oc2ccccc12` ; retrieve measured Ratio.
A. 101

Q. Can you share its Ratio? I mean this compound: `O=C(/C=C/c1ccc2ccccc2c1)c1ccccc1O`
A. 40

Q. Find the recorded Ratio belonging to `O=C(/C=C/c1cccnc1Br)c1ccccc1O` and report it.
A. 0.71

* * *

test.system: Nuclear factor erythroid 2-related factor 2 (Mus musculus) (UniProt Q60795)
Sequence (Q60795 whole entry): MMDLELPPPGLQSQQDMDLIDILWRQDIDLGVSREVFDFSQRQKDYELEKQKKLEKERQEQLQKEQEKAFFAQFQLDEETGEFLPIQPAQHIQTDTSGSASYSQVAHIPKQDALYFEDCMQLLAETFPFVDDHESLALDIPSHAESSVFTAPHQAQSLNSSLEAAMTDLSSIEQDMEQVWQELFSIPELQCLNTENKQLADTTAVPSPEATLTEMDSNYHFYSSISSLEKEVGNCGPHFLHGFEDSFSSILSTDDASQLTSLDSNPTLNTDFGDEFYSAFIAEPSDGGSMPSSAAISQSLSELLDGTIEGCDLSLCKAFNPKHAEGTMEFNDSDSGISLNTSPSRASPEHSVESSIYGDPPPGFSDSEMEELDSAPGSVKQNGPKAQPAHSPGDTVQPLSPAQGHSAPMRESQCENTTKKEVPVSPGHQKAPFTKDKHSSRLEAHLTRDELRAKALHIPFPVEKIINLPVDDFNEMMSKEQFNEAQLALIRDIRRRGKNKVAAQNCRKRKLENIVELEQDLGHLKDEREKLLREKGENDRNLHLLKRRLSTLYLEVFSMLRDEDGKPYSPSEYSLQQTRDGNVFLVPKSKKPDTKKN
assay.explanation: Activation of Nrf2 in mutant mouse BpRc1 cells cytosolic fraction assessed as induction of quinone reductase activity using 2,6-DCIP as substrate in presence of NADH incubated for 48 hrs measured for 1 min
Format: cell-based
So I've got a bunch of compounds here, and I need their CD values.
Entry rule: numbers only, all in µM.

Q. Item `O=C(/C=C/c1cccnc1Br)c1ccccc1O` has what recorded CD?
A. 10

Q. Would you mind telling me what CD value was observed for `O=c1cc(-c2ccc(Br)cc2)oc2ccccc12` ?
A. 80

Q. What value of measured CD is listed for `O=C(/C=C/c1cccc2ccccc12)c1ccccc1O` ?
A. 10

Q. Dear colleague, I am looking for the recorded CD of the following compound: `CC(C)(C)c1cc(O)ccc1O`
A. 6

Q. Dear colleague, I am looking for the recorded CD of the following compound: `O=C(/C=C/c1ccc2ccccc2c1)c1ccccc1O`
A. 20
